# Measurement target: recombinant human TFPI (tissue factor pathway inhibitor) (human, UniProt P10646 29-304)
# Protocol description: cell-based or functional assay
// values below are reported FXa assay OD, 10 nM Ab, 10 nM TFPI
# print the numeric value only

binder="clone 4208 (antibody, V domains shown) VH: EVQLVESGGGLVKSGGSLRLSCAASGFTFSSYAMSWVRQAPGKGLEWVGTITTGGSYTYYADSVQGRFTISRDNAKNSLYLQMNSLRAEDTAVYYCARQDGNFLMDYWGQGTLVTVSS VL: DVVMTQTPLSLPVTLGQPASISCKSSQSLLDTDGKTYLNWLQQRPGQSPKRLIYLVSKLDSGVPDRFTGSGSGTDFTLKISRVEAEDVGVYYCWQGTHFPFTFGQGTKVEIKR" reported_result=0.099

Q: Which FXa assay OD, 10 nM Ab, 10 nM TFPI is listed for clone A67 (antibody, V domains shown) VH: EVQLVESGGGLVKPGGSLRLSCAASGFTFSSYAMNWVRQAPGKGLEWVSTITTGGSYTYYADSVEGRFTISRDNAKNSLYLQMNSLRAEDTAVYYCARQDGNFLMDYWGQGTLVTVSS VL: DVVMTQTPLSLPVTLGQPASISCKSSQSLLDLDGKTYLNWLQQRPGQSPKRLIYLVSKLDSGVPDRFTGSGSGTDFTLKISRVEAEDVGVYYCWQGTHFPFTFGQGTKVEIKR ?
Ans: 0.516

Q: Another binder to check: clone 1023 (antibody, V domains shown, scFv on yeast at selection; human IgG4/kappa IgG as purified) VH: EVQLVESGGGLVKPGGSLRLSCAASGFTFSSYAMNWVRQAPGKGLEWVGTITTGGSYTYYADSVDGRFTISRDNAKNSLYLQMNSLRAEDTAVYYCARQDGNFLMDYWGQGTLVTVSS VL: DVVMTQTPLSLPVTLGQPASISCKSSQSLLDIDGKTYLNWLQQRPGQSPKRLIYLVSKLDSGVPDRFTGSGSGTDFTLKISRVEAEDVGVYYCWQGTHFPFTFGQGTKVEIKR
Ans: 0.684

Q: Try this binder too: clone 3203 (antibody, V domains shown) VH: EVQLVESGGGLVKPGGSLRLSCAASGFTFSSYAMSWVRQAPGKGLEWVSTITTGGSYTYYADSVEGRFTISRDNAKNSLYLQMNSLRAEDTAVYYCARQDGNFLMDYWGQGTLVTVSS VL: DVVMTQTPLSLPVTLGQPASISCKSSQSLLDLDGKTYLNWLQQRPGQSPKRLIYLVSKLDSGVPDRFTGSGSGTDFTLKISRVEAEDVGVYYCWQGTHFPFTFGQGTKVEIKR
Ans: 0.394

Q: Please give the result for clone 3241 (antibody, V domains shown, scFv on yeast at selection; human IgG4/kappa IgG as purified; also called No. 3241 antibody) VH: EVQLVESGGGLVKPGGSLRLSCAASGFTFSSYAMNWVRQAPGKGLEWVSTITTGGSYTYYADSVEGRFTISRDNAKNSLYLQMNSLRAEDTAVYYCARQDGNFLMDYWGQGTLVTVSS VL: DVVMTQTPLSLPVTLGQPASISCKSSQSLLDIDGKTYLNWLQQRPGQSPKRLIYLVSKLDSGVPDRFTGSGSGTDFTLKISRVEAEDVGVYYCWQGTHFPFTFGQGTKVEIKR too.
Ans: 0.677
